I'd be grateful if you could share measured pKi for these entries.
experimental-target: Mu-type opioid receptor (Rattus norvegicus, UniProt P33535)
Sequence (P33535 whole entry): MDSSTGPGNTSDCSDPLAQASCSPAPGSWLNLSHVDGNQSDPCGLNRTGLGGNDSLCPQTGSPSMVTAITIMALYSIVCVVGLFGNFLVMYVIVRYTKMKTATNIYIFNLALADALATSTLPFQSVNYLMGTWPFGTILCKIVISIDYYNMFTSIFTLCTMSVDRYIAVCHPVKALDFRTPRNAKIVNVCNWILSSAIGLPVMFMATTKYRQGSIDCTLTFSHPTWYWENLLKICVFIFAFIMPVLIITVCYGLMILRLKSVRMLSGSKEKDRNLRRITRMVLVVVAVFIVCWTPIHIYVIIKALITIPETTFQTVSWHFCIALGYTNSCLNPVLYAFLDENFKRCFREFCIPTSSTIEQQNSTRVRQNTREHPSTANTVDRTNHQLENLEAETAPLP
// returns pKi (minus log10 of molar concentration), number only

Identify pKi associated with the molecule CC(C)CCO[C@@]12Cc3c([nH]c4ccccc34)[C@]3(C)Oc4c(O)ccc5c4[C@@]31CCN(C)[C@@H]2C5
6.62

Report pKi for CN1CC[C@]23c4c5ccc(O)c4O[C@H]2c2[nH]c4ccccc4c2C[C@@]3(O)[C@H]1C5
6.77

Give me measured pKi, please, for this molecule: CCO[C@@]12Cc3c([nH]c4ccccc34)[C@]3(C)Oc4c(O)ccc5c4[C@@]31CCN(C)[C@@H]2C5
6.29
